- Experiment description: soluble on expression in E. coli; label from the status in PepcDB or PDB records

Input sequence: MLGSSSLSIRTTDDKSLFARTMDFTMEPDSKVIIVPRNYGIRLLEKENVVINNSYAFVGMGSTDITSPVLYDGVNEKGLMGAMLYYATFATYADEPKKGTRGINPVYVISQVLGNCVTVDDVIEKLTSYTLLNEANIILGFAPPLHYTFTDASGESIVIEPDKTGITIHRKTIGVMTNSPGYEWHQTNLRAYIGVTPNPPQDIMMGDLDLTPFGQGAGGLGLPGDFTPSARFLRVAYWKKYTEKAKNETEGVTNLFHILSSVNIPKGVVLTNEGKTDYTIYTSAMCAQSKNYYFKLYDNSRISAVSLMAENLNSQDLITFEWDRKQDIKQLNQVNVMS
soluble on expression in E. coli: soluble
//
Input sequence: MTVTIKELTNHNYIDHELSATLDSTDAFEGPEKLLEIWFFPHKKSITTEKTLRNIGMDRWIEILKLVKCEVLSMKKTKELDAFLLSESSLFVFDHKLTMKTCGTTTTLFCLEKLFQIVEQELSWAFRTTQGGKYKPFKVFYSRRCFLFPCKQAAIHQNWADEVDYLNKFFDNGKSYSVGRNDKSNHWNLYVTETDRSTPKGKEYIEDDDETFEVLMTELDPECASKFVCGPEASTTALVEPNEDKGHNLGYQMTKNTRLDEIYVNSAQDSDLSFHHDAFAFTPCGYSSNMILAEKYYYTLHVTPEKGWSYASFESNIPVFDISQGKQDNLDVLLHILNVFQPREFSMTFFTKNYQNQSFQKLLSINESLPDYIKLDKIVYDLDDYHLFYMKLQKKI
soluble on expression in E. coli: soluble
//
Input sequence: MAALRNGLEGSSEETSFHDESLQDDREEIENNSYHMHPAGIILTKVGYYTIPSMDDLAKITNEKGECIVSDFTIGRKGYGSIYFEGDVNLTNLNLDDIVHIRRKEVVVYLDDNQKPPVGEGLNRKAEVTLDGVWPTDKTSRCLIKSPDRLADINYEGRLEAVSRKQGAQFKEYRPETGSWVFKVSHF
soluble on expression in E. coli: soluble

====

- Experiment description: soluble on expression in E. coli; label from the status in PepcDB or PDB records
Result type: soluble on expression in E. coli

Input sequence: MSLKLLAFDTSSTALSVAILEDDRLLADASLTIKKNHSISLMPTIDFLMKSVNLSPQDLDRIVVAEGPGSYTGLRVAVATAKTLAYTLTIDLVGVSSLAALALNSHHEGFIVPIMDARRNHVYVGFYENGRAAKADQYASLNAVLEQLKGRKQVTFVGEVTAFRQEINQTFPEAKVLEVLPSAFKIGQVGQKLTPVDVHAFVPKYLKKVEAEENWLKTHEDSGLSYVKRVEGHHHHHH
Result: not soluble
--
Input sequence: MIKSALLVLEDGTQFHGRAIGATGSAVGEVVFNTSMTGYQEILTDPSYSRQIVTLTYPHIGNVGTNDADEESSQVHAQGLVIRDLPLIASNFRNTEDLSSYLKRHNIVAIADIDTRKLTRLLREKGAQNGCIIAGDNPDAALALEKARAFPGLNGMDLAKEVTTAEAYSWTQGSWTLTGGLPEAKKEDELPFHVVAYDFGAKRNILRMLVDRGCRLTIVPAQTSAEDVLKMNPDGIFLSNGPGDPAPDDYAITAIQKFLETDIPVFGICLGHQLLALASGAKTVKMKFGHHGGNHPVKDVEKNVVMITAQNHGFAVDEATLPANLRVTHKSLFDGTLQGIHRTDKPAFSFQGHPEASPGPHDAAPLFDHFIELIEQYRKTAK
Result: soluble
--
Input sequence: MSKDLVHPSLIRAGIVELEMAEETTDLINRTIESNQAHLQGEPLYVDSLPEDMSRLRIEDKSRRTKTEEEERDEGSSEEDNYLSEGQDPLIPFQNFLDEIGARAVKRLKTGEGFFRVWSALSDDIKGYVSTNIMTSGERDTKSIQIQTEPTASVSSGNESRHDSESMHDPNDKKDHTPDHDVVPDIESSTDKGEIRDIEGEVAHQVAESFSKKYKFPSRSSGIFLWNFEQLKMNLDDIVKAAMNVPGVERIAEKGGKLPLRCILGFVALDSSKRFRLLADNDKVARLIQEDINSYMARLEEAE
Result: soluble
--
Input sequence: MGSDKIHHHHHHMLDSYIKRIVIHQFSPNDTELLLSDRLVSITPRIDEYFRKKLAKVFSDEAKRGQFEANNTFFTTIGDDLLETSVTIAQLWKEAFVISEDQKTNDLVFVQFDKDGEPFFAFLRIALKEQFAHLSDNYEHPFTVTQNNLPSPTQTPDEALVINLKSGQYYLIEKRVKHNGSFANYFSEHLLKVTPEQSVKKSIKMIEQTAQKIAEHFNQDDFTFQSKMKSTLFKQLEADDVLSPEKLADQLFDDNLTARLTFVDQVKDVIPEPIKISDIEHSRQIKKLENQKLSLSNGIELTVPNAIYQDAEAVEFLLNDDGTYSILIKNIEDIKTK
Result: not soluble
--
Input sequence: GPGSYDSNLYVASLPEWFTDADLHELFKRFGPIVSAKVMCHKGTHHCKGYGFVLFQRTDDAAVARSEMIGHVVGGNKIQVRRARSAASAPLTEAASAVSGTFTESSGSTRTSSSNVTPINYSVHVVPSQQPSFNPLYPATTALTPTYVLTNPSAPVQNATHTQPAMLVAVPNGRTMVQGAGDVMYMVLASSAQQMQSTSAIY
Result: not soluble
--
Input sequence: MSLTDVLTATYELYLAEGESPEGKARGIALEQTVEMPADCLPGDIAERMVGRIRTLEPRADHWVLEIDYPLAAIGGELTQCLNLLFGNISLQSGIRLVQVAWPPSLLRRWGGPGLGVSGLRARLDVGARPLLCAALKPMGLSAPALAARCAAFARGGVDLIKDDHGLADQPDAPFAERLNACQDAVRQANRRSGGRSLYLPNVTAAPQALGERLAAARDAGCEMVLISPWLTGLETLRWARDEYGLALMAHPAMTGGLFLPRHGISPALLLGELFRIAGADAVIYPNVGGRFRFSADTCQAINHALRRPLEGLASAWPTPGGGVDVKRAGHWKQAYGPDTILLIGGSLYAQGDIEAASRALMQAIRDEGHHHHHH
Result: soluble
--
Input sequence: MGSSHHHHHHSSGRENLYFQGMTLKAGIVGIGMIGSDHLRRLANTVSGVEVVAVCDIVAGRAQAALDKYAIEAKDYNDYHDLINDKDVEVVIITASNEAHADVAVAALNANKYVFCEKPLAVTAADCQRVIEAEQKNGKRMVQIGFMRRYDKGYVQLKNIIDSGEIGQPLMVHGRHYNASTVPEYKTPQAIYETLIHEIDVMHWLLNEDYKTVKVYFPRQSSLVTTLRDPQLVVMETTSGINIVVEVFVNCQYGYDIHCDVTGEKGMAELPTVASAAVRKAAKYSTDILVDWKQRFIDAYDIEFQDFFDRLNAGLPPAGPTSWDGYLAAVTADACVKSQETGNTEIVELPSKPDFYK
Result: soluble
--
Input sequence: MFTTKGIDISGELTMMGIPEQNSKTVTPGLHYAADGFRLSGGNANFIARNMASVTGNIYADDAATITLGQPETETPTISSAYQAWAETLLYGFDTAYRGAITAPKATVSMNNAIWHLNSQSSINRLETKDSMVRFTGDNGKFTTLTVDNLTIDDSAFVLRANLAQADQ
Result: not soluble
--
Input sequence: GMTTENTTALLLIDFQNDYFSTYNGAKNPLVGTEAAAEQGAKLLAKFRQQGLPVVHVRHEFPTDEAPFFLPGSDGAKIHPSVAAQEGEAVVLKHQINSFRDTDLKKVLDDAGIKKLVIVGAMTHMCIDAVTRAAEDLGYECAVAHDACATLDLEFNGITVPAAQVHAAFMSALSFAYANVASADELIAGL
Result: soluble
--
Input sequence: MAHHHHHHMRDPQKNCDDVVALRETLKERAGEMAKKMKENERELFLNPMPLGISCDGLPLDTDPEFHALEVARLRERQEESCDEAKIHKLNDALNERAEDLARAKLAADRQYLNPEHLRVAVDELPLNEDRNFILKEALRQEKLQNSRESAAAIAALENELNNMAKAMAAEMLAKQRPSYLAPEHHGRRIEDLPLNDSDDFLKKERRRRDLLKQPSWDIDVVAEIDKELSEMADAMARAMNAAERPQYMKASYYDKTLSELSLDTDSIIARLEAQRARLKRNPVRNAEAIHATEAAIISRAEALAKASINVGRGGVFSASQAECRSISLTSMEANSFNLLRRRGWSS
Result: soluble
